Listing of entries alongside the reported PBM binding z-score.
Test system: VDR homodimer (NR concentration 270 nM)
Assay: PBM binding z-score (relative to random genomic background probes); higher = stronger binding; sequences stand for … in GC…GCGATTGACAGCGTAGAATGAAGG
assayReadout: PBM binding z-score

> print(dat)
                       primarysequence  reportedvalue
 1  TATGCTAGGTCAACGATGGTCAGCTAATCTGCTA         -0.267
 2  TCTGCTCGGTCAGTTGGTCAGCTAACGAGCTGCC         -0.918
 3  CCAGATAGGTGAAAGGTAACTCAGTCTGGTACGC          0.348
 4  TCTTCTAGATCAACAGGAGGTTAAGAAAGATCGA         -0.175
 5  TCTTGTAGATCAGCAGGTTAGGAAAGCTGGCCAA         -0.206
 6  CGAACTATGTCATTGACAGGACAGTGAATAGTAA         0.0338
 7  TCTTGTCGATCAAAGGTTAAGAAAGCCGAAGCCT         0.0763
 8  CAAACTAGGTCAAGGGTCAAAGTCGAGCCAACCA           3.15
 9  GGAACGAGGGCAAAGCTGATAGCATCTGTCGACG          0.452
10  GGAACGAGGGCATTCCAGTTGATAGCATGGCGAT           2.61
11  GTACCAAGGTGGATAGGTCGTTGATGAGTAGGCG         -0.371
12  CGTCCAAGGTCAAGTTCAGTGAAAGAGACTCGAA           4.75
13  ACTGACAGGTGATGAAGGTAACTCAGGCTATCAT         -0.152
14  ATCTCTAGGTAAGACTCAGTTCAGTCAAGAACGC           1.48
15  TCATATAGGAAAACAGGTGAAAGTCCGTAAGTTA          0.639
16  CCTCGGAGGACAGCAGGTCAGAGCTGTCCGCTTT         -0.273
17  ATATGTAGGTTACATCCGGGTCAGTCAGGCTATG           1.45
18  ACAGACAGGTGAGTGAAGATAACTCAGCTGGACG         -0.624
19  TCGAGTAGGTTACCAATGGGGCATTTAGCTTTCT         -0.414
20  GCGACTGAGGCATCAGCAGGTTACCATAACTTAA          -0.64
21  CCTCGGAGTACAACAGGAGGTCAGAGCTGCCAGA           1.47
22  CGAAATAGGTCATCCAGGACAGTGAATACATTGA           1.92
23  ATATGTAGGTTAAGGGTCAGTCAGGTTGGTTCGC           2.75
24  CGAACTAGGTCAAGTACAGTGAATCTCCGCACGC           1.45
25  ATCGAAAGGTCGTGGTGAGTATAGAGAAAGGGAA           1.23
26  ACAGACAGGTGTGTGAAGGTAACTCAGCTGGACG          -0.49
27  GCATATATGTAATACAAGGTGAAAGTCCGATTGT        -0.0295
28  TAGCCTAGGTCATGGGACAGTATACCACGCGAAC          0.784
29  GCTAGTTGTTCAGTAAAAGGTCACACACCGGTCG           1.84
30  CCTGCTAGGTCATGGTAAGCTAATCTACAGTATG         -0.214
31  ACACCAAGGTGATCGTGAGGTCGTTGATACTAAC           2.69
32  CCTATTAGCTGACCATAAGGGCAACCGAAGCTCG          0.435
33  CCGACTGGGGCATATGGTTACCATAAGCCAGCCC         -0.752
34  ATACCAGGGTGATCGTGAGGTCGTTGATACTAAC           2.64
35  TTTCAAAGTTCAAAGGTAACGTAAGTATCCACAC           4.68
36  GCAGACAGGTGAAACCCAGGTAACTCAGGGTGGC         -0.563
37  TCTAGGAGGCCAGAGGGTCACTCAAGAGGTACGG          0.313
38  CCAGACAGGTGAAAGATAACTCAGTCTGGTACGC          0.339
39  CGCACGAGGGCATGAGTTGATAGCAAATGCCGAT           1.63
40  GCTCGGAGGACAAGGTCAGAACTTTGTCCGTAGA          0.595

---

Test system: VDR homodimer (NR concentration 270 nM)
Experiment: PBM binding z-score (relative to random genomic background probes); higher = stronger binding; sequences stand for … in GC…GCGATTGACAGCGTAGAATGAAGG
Mark criterion met for reported PBM binding z-score of 1 or greater; mark criterion not met for anything smaller.

> print(dat)
                       primarysequence     classification
 1  GGGACGAGGGCATTCGAGTTGATAGCATGGCGAT      criterion met
 2  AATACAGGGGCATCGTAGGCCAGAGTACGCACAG      criterion met
 3  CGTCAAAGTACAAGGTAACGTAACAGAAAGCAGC  criterion not met
 4  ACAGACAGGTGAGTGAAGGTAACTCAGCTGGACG  criterion not met
 5  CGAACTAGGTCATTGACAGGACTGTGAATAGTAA  criterion not met
 6  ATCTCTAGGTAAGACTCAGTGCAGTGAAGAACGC  criterion not met
 7  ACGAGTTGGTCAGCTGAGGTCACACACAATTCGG      criterion met
 8  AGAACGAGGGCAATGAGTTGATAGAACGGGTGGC      criterion met
 9  ATCTCTAGGTAACCGAGTTCAGTGAATGCCGAAC      criterion met
10  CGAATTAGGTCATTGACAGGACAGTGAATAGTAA      criterion met
11  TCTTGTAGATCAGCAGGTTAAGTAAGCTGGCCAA  criterion not met
12  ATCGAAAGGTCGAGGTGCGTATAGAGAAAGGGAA  criterion not met
13  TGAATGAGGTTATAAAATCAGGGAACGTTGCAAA  criterion not met
14  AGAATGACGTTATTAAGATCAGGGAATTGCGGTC  criterion not met
15  ACTATTAGTTGAGACGAGGTCAACCGATAGGTTG      criterion met
16  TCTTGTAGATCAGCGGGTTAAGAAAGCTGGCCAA  criterion not met
17  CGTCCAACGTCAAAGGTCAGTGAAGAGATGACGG  criterion not met

---

Test system: RARb homodimer (NR concentration 270 nM)
Assay: PBM binding z-score (relative to random genomic background probes); higher = stronger binding; sequences stand for … in GC…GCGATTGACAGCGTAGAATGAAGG
# label = TRUE if PBM binding z-score >= 2 else FALSE

> print(dat)
                       primarysequence  classification
 1  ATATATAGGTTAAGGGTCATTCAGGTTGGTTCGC            TRUE
 2  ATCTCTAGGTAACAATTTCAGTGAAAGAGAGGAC           FALSE
 3  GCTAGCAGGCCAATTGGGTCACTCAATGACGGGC           FALSE
 4  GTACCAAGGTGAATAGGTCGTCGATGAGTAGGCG            TRUE
 5  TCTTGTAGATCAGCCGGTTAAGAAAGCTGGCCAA           FALSE
 6  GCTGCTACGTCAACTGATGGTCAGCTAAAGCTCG           FALSE
 7  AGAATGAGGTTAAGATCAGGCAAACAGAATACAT           FALSE
 8  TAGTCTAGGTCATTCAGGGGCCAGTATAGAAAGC            TRUE
 9  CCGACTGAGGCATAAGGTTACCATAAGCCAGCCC           FALSE
10  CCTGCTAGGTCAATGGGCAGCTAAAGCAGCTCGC            TRUE
11  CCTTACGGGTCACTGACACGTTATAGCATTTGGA            TRUE
12  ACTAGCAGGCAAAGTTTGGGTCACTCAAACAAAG           FALSE
13  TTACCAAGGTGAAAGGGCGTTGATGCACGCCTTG           FALSE

---

Tested on: PPARg:RXRa IVT, anti-PPARg (NR concentration 270 nM, RXRa partner concentration 90 nM)
Experiment: PBM binding z-score (relative to random genomic background probes); higher = stronger binding; sequences stand for … in GC…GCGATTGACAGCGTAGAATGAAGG
Reported PBM binding z-score values follow for various sequences
assayReadout: PBM binding z-score

> print(dat)
                       primarysequence  reportedvalue
 1  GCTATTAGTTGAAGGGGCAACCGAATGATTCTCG        -0.0967
 2  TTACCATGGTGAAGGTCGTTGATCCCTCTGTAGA          0.772
 3  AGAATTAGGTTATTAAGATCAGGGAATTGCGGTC           5.44
 4  CTCGAAAGGTCGTGCTCAGGTGAGTAAACCAAAC           1.96
 5  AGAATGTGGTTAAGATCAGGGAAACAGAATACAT         0.0486
 6  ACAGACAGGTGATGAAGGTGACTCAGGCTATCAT          0.845
 7  CAAACTAGGTCACAGAGGTCAAAATCCGTGCGTA           9.12
 8  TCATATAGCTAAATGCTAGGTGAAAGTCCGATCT          0.452
 9  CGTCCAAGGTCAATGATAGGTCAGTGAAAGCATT           3.61
10  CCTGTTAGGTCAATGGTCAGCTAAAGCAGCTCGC           3.13
11  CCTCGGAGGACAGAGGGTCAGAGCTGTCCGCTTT          0.141
